assay: method code SF-HPLC, from DOI: 10.1002/qsar.19910100205; conditions: pH 3.5
Property: logD

Examples with answers:
O=C1CNC(=O)N1c1ccccc1    0.04
O=C1NC(=O)N(Cc2ccccc2)C1=O    1.19

A. O=C1CC(=O)N(Cc2ccccc2)C1
B. NS(=O)(=O)NC(=O)Cc1ccccc1
C. O=C1NC(=O)C(Cc2ccccc2)S1 (configuration not stated)
D. O=C1CS(=O)(=O)C(c2ccccc2)N1 (configuration not stated)
E. CC1(COc2ccc(CC3SC(=O)NC3=O)cc2)CCCCC1 (configuration not stated)
In: Returns the items ordered by logD, from maximum to minimum. Field: ranking. Enter the labels in the order requested.
Out: E, C, A, B, D
(E: 3.57, C: 1.98, A: 0.76, B: 0.31, D: 0.18)

I. O=C1CC(=O)C(c2ccccc2)O1 (configuration not stated)
II. O=C1NC(=O)C(Cc2ccccc2)N1 (configuration not stated)
In: Looking only at measured logD, which entry is lower, I or II ? Use the label to indicate which entry you chose.
Out: II

----------
experiment: method code SF-HPLC, from DOI: 10.1002/qsar.19910100205; conditions: pH 3.5
Property: logD

O=c1[nH]c(=O)n(-c2ccccc2)o1    1.68
O=C1CN(Cc2ccccc2)C(=O)N1    0.76
O=C1CC(=O)N(c2ccccc2)O1    0.54
O=C1NC(=O)N(c2ccccc2)C1=O    0.6
O=C1NC(=O)C(c2ccccc2)O1 (stereo not drawn)    1.09

1. O=C1NC(=O)C(Cc2ccccc2)O1 (stereo not drawn)
2. O=C1CN(c2ccccc2)C(=O)N1
3. O=C1CC(=O)C(c2ccccc2)N1 (stereo not drawn)
In: Returns the items ordered by logD, from maximum to minimum. Field: ranking. Enter the labels in the order requested.
Out: 1, 2, 3
